# System: A172 (human glioblastoma)
# TEST_METHOD_NOTES: Test on cell proliferation (MTT test), A172
# Format: cell-based
# MEASUREMENT_CONDITIONS: 10 000 nM, 72 hours
Give PERCENTAGE OF CELL PROLIFERATION for every item shown.
Give bare numbers, in %.

CCC1(O)CC(=O)OCc2c1cc1n(c2=O)Cc2cc3ccccc3nc2-1 (centres unmarked) [Example 3] :: 10.00

Report PERCENTAGE OF CELL PROLIFERATION for every entry below.
1. CCc1c2c(nc3ccccc13)-c1cc3c(c(=O)n1C2)COC(=O)CC3(O)CC (centres unmarked) [Example 9]
2. CCC(O)(CC(=O)O)c1cc2n(c(=O)c1CO)Cc1cc3ccccc3nc1-2 (centres unmarked) [Example 4]
3. CCC1(O)CC(=O)OCc2c1cc1n(c2=O)Cc2cc3cc4c(cc3nc2-1)OCCO4 (centres unmarked) [Example 11]
4. CCc1c2c(nc3ccccc13)-c1cc(C(O)(CC)CC(=O)O)c(CO)c(=O)n1C2 (centres unmarked) [Example 10]

A:
3.00
31.00
3.00
15.00

---

# System: A549 (human lung carcinoma)
# TEST_METHOD_NOTES: Test on cell proliferation (MTT test), A549
# Type: cell-based
# MEASUREMENT_CONDITIONS: 1 nM, 72 hours
PROPERTY: PERCENTAGE OF CELL PROLIFERATION (%)
Numbers only, in %.

Solved cases (4 shown):
CCC(O)(CC(=O)O)c1cc2n(c(=O)c1CO)Cc1cc3ccccc3nc1-2 (centres unmarked) :: 76.00
CCC1(O)CC(=O)OCc2c1cc1n(c2=O)Cc2cc3cc4c(cc3nc2-1)OCCO4 (centres unmarked) :: 44.00
CCc1c2c(nc3ccccc13)-c1cc(C(O)(CC)CC(=O)O)c(CO)c(=O)n1C2 (centres unmarked) :: 76.00
CCC1(O)CC(=O)OCc2c1cc1n(c2=O)Cc2cc3ccccc3nc2-1 (centres unmarked) :: 111.00

Attention now shifts to the item below.
Q: For the compound shown here, CCc1c2c(nc3ccccc13)-c1cc3c(c(=O)n1C2)COC(=O)CC3(O)CC (centres unmarked) , give the reported PERCENTAGE OF CELL PROLIFERATION.
A: 88.00

---

Hi there, I'd appreciate the recorded PERCENTAGE OF CELL PROLIFERATION for every entry that follows.
# System: U373 (human glioblastoma)
# TEST_METHOD_NOTES: Test on cell proliferation (MTT test), U373
# Format: cell-based
# MEASUREMENT_CONDITIONS: 1 nM, 72 hours
Provide the measurement as a number trailed by its unit.

CCC1(O)CC(=O)OCc2c1cc1n(c2=O)Cc2cc3ccccc3nc2-1 (centres unmarked) :: 98.00%

Look up PERCENTAGE OF CELL PROLIFERATION for the entries below, preserving their order.
1. CCc1c2c(nc3ccccc13)-c1cc(C(O)(CC)CC(=O)O)c(CO)c(=O)n1C2 (centres unmarked)
2. CCC1(O)CC(=O)OCc2c1cc1n(c2=O)Cc2cc3cc4c(cc3nc2-1)OCCO4 (centres unmarked)
3. CCC(O)(CC(=O)O)c1cc2n(c(=O)c1CO)Cc1cc3ccccc3nc1-2 (centres unmarked)

A:
1. 104.00%
2. 30.00%
3. 85.00%

Q: For the record CCc1c2c(nc3ccccc13)-c1cc3c(c(=O)n1C2)COC(=O)CC3(O)CC (centres unmarked) , what value of PERCENTAGE OF CELL PROLIFERATION is listed for U373 (human glioblastoma)?
A: 69.00%

---

# Tested on: A172 (human glioblastoma)
# TEST_METHOD_NOTES: Test on cell proliferation (MTT test), A172
# Format: cell-based
# MEASUREMENT_CONDITIONS: 10 nM, 72 hours
Kindly supply the reported PERCENTAGE OF CELL PROLIFERATION values for the records listed here.
Report as: number unit

State recorded PERCENTAGE OF CELL PROLIFERATION for all listed compounds.
1. CCC(O)(CC(=O)O)c1cc2n(c(=O)c1CO)Cc1cc3ccccc3nc1-2 (centres unmarked)
2. CCc1c2c(nc3ccccc13)-c1cc(C(O)(CC)CC(=O)O)c(CO)c(=O)n1C2 (centres unmarked)
3. CCC1(O)CC(=O)OCc2c1cc1n(c2=O)Cc2cc3ccccc3nc2-1 (centres unmarked)
4. CCc1c2c(nc3ccccc13)-c1cc3c(c(=O)n1C2)COC(=O)CC3(O)CC (centres unmarked)
5. CCC1(O)CC(=O)OCc2c1cc1n(c2=O)Cc2cc3cc4c(cc3nc2-1)OCCO4 (centres unmarked)

A:
1. 98.00%
2. 91.00%
3. 68.00%
4. 44.00%
5. 47.00%

---

Exercise: state measured PERCENTAGE OF CELL PROLIFERATION for each of the compounds provided.
# System: A172 (human glioblastoma)
# TEST_METHOD_NOTES: Test on cell proliferation (MTT test), A172
# Type: cell-based
# MEASUREMENT_CONDITIONS: 1 nM, 72 hours
One number for each entry, in %.

Solved cases (2 shown):
CCc1c2c(nc3ccccc13)-c1cc3c(c(=O)n1C2)COC(=O)CC3(O)CC (centres unmarked) [Example 9] :: 89.00
CCc1c2c(nc3ccccc13)-c1cc(C(O)(CC)CC(=O)O)c(CO)c(=O)n1C2 (centres unmarked) [Example 10] :: 92.00

Could you report PERCENTAGE OF CELL PROLIFERATION for every entry in the following list?
1. CCC1(O)CC(=O)OCc2c1cc1n(c2=O)Cc2cc3cc4c(cc3nc2-1)OCCO4 (centres unmarked) [Example 11]
2. CCC(O)(CC(=O)O)c1cc2n(c(=O)c1CO)Cc1cc3ccccc3nc1-2 (centres unmarked) [Example 4]
3. CCC1(O)CC(=O)OCc2c1cc1n(c2=O)Cc2cc3ccccc3nc2-1 (centres unmarked) [Example 3]

A:
1. 53.00
2. 92.00
3. 101.00

---

# MEASURED_TARGET: DNA topoisomerase 1 of purified calf thymus (Bos taurus)
# Construct: DNA topoisomerase 1 of purified calf thymus (Gibco-BRL, Paisley, United Kingdom); purchased Gibco-BRL, Paisley, United Kingdom; host or cells: calf thymus tissue
# Sequence (F1MN93 1-767): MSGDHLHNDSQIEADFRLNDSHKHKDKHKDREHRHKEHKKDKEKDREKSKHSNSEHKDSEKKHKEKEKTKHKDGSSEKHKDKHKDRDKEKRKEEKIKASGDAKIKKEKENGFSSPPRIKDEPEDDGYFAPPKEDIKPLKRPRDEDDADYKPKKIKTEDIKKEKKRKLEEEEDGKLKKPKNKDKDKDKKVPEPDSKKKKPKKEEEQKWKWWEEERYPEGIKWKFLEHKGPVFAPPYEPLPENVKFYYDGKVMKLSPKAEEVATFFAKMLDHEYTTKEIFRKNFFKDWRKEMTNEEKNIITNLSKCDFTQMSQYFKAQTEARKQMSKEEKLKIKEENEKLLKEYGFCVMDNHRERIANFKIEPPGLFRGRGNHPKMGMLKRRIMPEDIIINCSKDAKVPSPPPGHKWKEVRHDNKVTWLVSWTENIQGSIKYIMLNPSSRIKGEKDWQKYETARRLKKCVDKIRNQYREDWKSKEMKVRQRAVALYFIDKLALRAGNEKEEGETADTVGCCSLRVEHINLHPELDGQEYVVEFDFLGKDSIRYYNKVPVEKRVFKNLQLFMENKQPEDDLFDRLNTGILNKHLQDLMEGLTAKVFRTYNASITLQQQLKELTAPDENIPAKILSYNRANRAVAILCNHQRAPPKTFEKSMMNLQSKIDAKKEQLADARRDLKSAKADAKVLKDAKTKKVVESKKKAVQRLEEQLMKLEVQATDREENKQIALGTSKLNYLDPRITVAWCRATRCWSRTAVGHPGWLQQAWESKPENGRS
# TEST_METHOD_NOTES: Relaxation activity test of DNA induced by topoisomerase 1
# Format: biochemical
# MEASUREMENT_CONDITIONS: 500 μM compound; supercoiled pUC19; 15 minutes at 37° C.
Consider the following compounds; for each one, report its PERCENTAGE OF RELAXED DNA.
Give bare numbers, in %.

CCc1c2c(nc3ccccc13)-c1cc(C(O)(CC)CC(=O)O)c(CO)c(=O)n1C2 (stereo not drawn) :: 8.7
CCC1(O)CC(=O)OCc2c1cc1n(c2=O)Cc2cc3cc4c(cc3nc2-1)OCCO4 (stereo not drawn) :: 31.0

Then there is this compound:
Q: Would you kindly share the measured PERCENTAGE OF RELAXED DNA for CCc1c2c(nc3ccccc13)-c1cc3c(c(=O)n1C2)COC(=O)CC3(O)CC (stereo not drawn) ?
A: 20.4

---

# System: Adenocarcinoma HT29 cells from the human colon
# TEST_METHOD_NOTES: Adenocarcinoma HT29 cell proliferation, WST1 (compounds in DMA)
# Format: cell-based
# MEASUREMENT_CONDITIONS: 72 hours, final DMA 0.1% (v/v)
PROPERTY: IC50 (nM)
Answers are plain numbers, in nM.

These recorded examples may help you get a feel for the data.
CC[C@@]1(O)CC(=O)OCc2c1cc1n(c2=O)Cc2c-1nc1cc(F)ccc1c2CC(C)C :: 12
CC[C@@]1(O)CC(=O)OCc2c1cc1n(c2=O)Cc2c-1nc1cc(F)ccc1c2-c1ccc(N(C)C)cc1 :: 13

--- query ---
Q: Please provide the recorded IC50 for CC[C@@]1(O)CC(=O)OCc2c1cc1n(c2=O)Cc2c-1nc1cc(F)ccc1c2-c1ccc(C(F)(F)F)cc1 , tested on Adenocarcinoma HT29 cells from the human colon.
A: 1.7
